molecular target: feline CaSR (f:CaSR) (Felis catus); test: cell-based; type: cell-based; settings: double-injection protocol, agonist mode and PAM mode
*1 amine or outer side, *2 acyl side, *3 side chain or, on linkers, in order; H or OH if unused. Where a SMILES comes first, the peptide text is derived from it. [ ]: non-standard residue; d: D form. γGlu = O=C(O)[C@H](CCC(=O)[*:2])N[*:1]; Abu = CC[C@H](N)C(=O)O
Recorded Metric: Activity Type

CC[C@H](NC(=O)CC[C@H](N)C(=O)O)C(=O)O    Agonist
CC(NCC1CCCN(C)C1c1cccs1)c1cc(Cl)c(N)c(Cl)c1 (centres unmarked)    PAM
N[C@@H](CCC(=O)N[C@@H](CSCc1c[nH]c2ccccc12)C(=O)NCC(=O)O)C(=O)O    Agonist
N[C@@H](Cc1ccc(OP(=O)(O)O)cc1)C(=O)O    Agonist
CNC(C)[C@@H]1CC[C@@H](N)[C@@H](O[C@H]2[C@H](O)[C@@H](O[C@H]3OC[C@](C)(O)[C@H](NC)[C@H]3O)[C@H](N)C[C@@H]2N)O1 (some centres unmarked) [Gentamicin, reference compound]    Agonist
N[C@@H](CCCC(=O)O)C(=O)O    Agonist

Kindly note the recorded Activity Type for CC(C)[C@H](NC(=O)CC[C@H](N)C(=O)O)C(=O)NCC(=O)O , which is Agonist

Kindly note the recorded Activity Type for CC(C)C[C@H](NC(=O)C[C@H](N)C(=O)O)C(=O)O , which is Agonist

Kindly note the recorded Activity Type for N[C@@H](CCC(=O)N[C@@H](Cc1ccc(O)cc1)C(=O)O)C(=O)O , which is Agonist

Kindly note the recorded Activity Type for CC[C@H](NC(=O)CC[C@H](N)C(=O)O)C(=O)NCC(=O)O [Ophthalmic Acid] (γGlu-[Abu]-Gly-OH) , which is Agonist

Kindly note the recorded Activity Type for NC(=O)CC[C@H](NC(=O)CC[C@H](NC(=O)CC[C@H](N)C(=O)O)C(=O)O)C(=O)O , which is Agonist

----------
target: feline CaSR (f:CaSR) (Felis catus, UniProt A0ABI7YY68); assay: in vitro PAM testing of amino acids on feline CaSR, single-injection protocol, shift of calcium EC50; format: cell-based; conditions: CaCl2 alone, control of the same experiment; listed as Ca2^+; read-out: EC50 of Ca^2+ before the shift (without amino acid)
Sequence (A0ABI7YY68 entry or part of it): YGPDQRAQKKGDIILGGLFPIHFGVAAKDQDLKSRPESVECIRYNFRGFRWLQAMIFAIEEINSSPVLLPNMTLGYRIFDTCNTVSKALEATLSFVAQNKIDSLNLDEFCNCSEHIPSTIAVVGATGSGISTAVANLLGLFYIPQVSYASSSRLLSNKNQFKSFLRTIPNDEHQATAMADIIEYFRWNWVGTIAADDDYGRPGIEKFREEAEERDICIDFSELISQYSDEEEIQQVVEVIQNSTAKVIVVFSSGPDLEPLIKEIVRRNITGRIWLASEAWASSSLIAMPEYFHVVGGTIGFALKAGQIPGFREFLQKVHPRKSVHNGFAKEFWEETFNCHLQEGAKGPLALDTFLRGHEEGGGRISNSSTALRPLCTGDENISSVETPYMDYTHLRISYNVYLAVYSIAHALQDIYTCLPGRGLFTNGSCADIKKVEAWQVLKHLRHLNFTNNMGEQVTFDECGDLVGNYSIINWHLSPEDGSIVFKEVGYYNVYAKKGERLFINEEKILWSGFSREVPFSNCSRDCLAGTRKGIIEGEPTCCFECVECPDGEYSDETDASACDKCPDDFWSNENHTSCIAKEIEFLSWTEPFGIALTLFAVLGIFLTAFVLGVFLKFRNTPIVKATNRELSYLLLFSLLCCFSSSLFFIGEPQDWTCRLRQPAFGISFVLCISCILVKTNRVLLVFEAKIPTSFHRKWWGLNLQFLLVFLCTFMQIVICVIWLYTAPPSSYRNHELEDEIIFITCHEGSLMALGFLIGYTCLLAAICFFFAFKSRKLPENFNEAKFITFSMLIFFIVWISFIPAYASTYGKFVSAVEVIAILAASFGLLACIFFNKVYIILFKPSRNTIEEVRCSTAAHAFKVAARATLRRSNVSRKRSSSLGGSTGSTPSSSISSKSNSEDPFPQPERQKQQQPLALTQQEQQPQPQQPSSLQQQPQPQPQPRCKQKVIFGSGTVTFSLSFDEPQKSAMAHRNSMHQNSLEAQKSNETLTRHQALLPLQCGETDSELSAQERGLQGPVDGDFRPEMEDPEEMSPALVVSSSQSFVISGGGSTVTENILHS
Recorded Metric: EC50 (mM)
Please respond with the number in mM and leave the unit unwritten.

Kindly note the recorded EC50 for [Ca] , which is 1.3

----------
target: feline CaSR (f:CaSR) (Felis catus); experiment: cell-based; assay type: cell-based; conditions: double-injection protocol, agonist mode and PAM mode
Recorded Metric: Activity Type

As a guide, the following entries are already answered.
CSCC[C@H](NC(=O)CC[C@H](N)C(=O)O)C(=O)O    Agonist
N[C@@H](CCP(=O)(O)O)C(=O)O (stereo in doubt)    Agonist
Cc1ccc(C(CCNC(C)c2ccc(Cl)cc2)c2ccco2)cc1 (stereo not drawn)    PAM
N[C@@H](CCC(=O)N[C@@H](Cc1c[nH]c2ccccc12)C(=O)O)C(=O)O    Agonist
OCC(CNC1CCCOc2cc(Cl)ccc21)Cc1ccccn1 (stereo not drawn)    PAM

Kindly note the recorded Activity Type for CC(NCC1Cc2ccccc2O1)c1ccc2ccccc2n1 (stereo not drawn) , which is PAM
